The entries below are paired with their reported melting point.
value-kind: melting point

In [3]: df
Out[3]:
                                   molecule     value_kind  value_reported
0  C[C@H](NC(=O)OCC1c2ccccc2-c2ccccc21)C(=O)O  melting point   144 to 146 °C
1     O=C(Nc1ccc(F)cc1O)c1cc(Cl)c(O)c(Cl)c1  melting point   223 to 224 °C
2  CCCCCCCCCCCCCCCCOC(=O)Nc1ccc(NC(=O)NS(=O)(=O)c2ccc3ccccc3c2)cc1  melting point          183 °C
3  COc1cc(N)c(Cl)cc1C(=O)NCC1CCN(CCCCSc2ccccc2)CC1  melting point   102 to 105 °C
4  COCON1C(=O)C(=C/c2ccccc2)/C(=C\c2cc(OC)c(OC)c(OC)c2)C1=O  melting point   175 to 177 °C
5  Cn1c(=O)c(C(=O)O)c(-c2ccccc2Cl)c2cc(Cl)ccc21  melting point   197 to 198 °C
6            O=[N+]([O-])c1cccc(-n2cccn2)c1  melting point     85 to 87 °C
7  CCc1c2nc(-c3cc(S(C)(=O)=O)ccc3OCC(C)C)[nH]c(=O)c2nn1C1CCN(C(C)C)CC1  melting point   273 to 275 °C
8                    C[Si](C)(C)c1ccc(Cl)s1  melting point     68 to 69 °C
9  CC(CCO)N1CCC(Cc2ccccc2)CC1 (stereo not given)  melting point     74 to 76 °C
